Recorded Kcat by entry
- Test details: Standard protocol for determination of kcat and KM (continuous spectrophotometric assay, Acetyl CoA hydrolysis at 235 nm)
- Assay type: biochemical
- Test parameters: purified protein; about 23° C.; 20 mM HEPES pH 6.8, 10% ethylene glycol, 0.2 mM acetyl CoA
Write down the numeric answer in s⁻¹ and omit the unit.

Check out these entries, answers already filled in.
Prompt: In one line, give reported Kcat of the entry SEQ ID NO: 384: GAT polypeptide (protein, 6_16F5, GAT polypeptide) MIEVKPINAEDTYEIRHRILRPNQPLEACMYETDLLGGTFHLGGYYRGKLISIASFHQAVHSELEGQKQYQLRGMATLEGYREQKAGSTLIRHAEELLRKKGADLLWCNARTSASGYYKKLGFSEQGGVYDIPPVGPHILMYKKLT .
Response: 0.587

Prompt: Tell us which Kcat value is on record for SEQ ID NO: 466: GAT polypeptide (protein, 1_1H1, GAT polypeptide) MIEVKPINAEETYELRHKILRPNQPIEACMYESDLLRGSFHLGGFYRGQLISIASFHKAEHSELQGQKQYQLRGMATLEGFREQKAGSSLIRHAEEILRNKGADLLWCNARTTASGYYKRLGFSEHGEVFETPPVGPHILMYKRIT
Response: 4.85

Field: next molecule
Prompt: Determine from records and report Kcat for SEQ ID NO: 347: GAT polypeptide (protein, 20A12, GAT polypeptide) MIEVKPINAEDTYEIRHRILRPNQPLEACMYETDLLGGTFHLGGYYQGKLISIASFHNAEHSELEGQKQYQLRGMATLEGYREQKAGSTLIRHAEELLRKKGVDLLWCNARTSVSGYYKKLGFSEQGGIYDIPPIGPHILMYKKLA
Response: 0.0467
